assay-text: inhibition of 3D7 malaria parasite growth – strain 3D7 (AID 2306);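 also: 0% = DMSO wells and 100% = chloroquine plus artemisinin control wells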
condition-summary: P. falciparum 3D7 erythrocytic growth, LDH absorbance, 72 h; at 2 µM; active compounds read high
Give growth inhibition for every item shown.
Numbers only, in %.

>>> print(df.to_string())
                                   compound  reported_value
0  COc1nc2c(CCN3CCC(NCc4ccc5c(c4)NC(=O)CO5)CC3)c(Cl)cnc2cc1F              99

Respectfully, I request growth inhibition for each entry included below.
1. COc1ccc(NC(=O)[C@H](Cc2ccccc2)Nc2cc(C)nc(NCCc3cccnc3)n2)cc1
2. CCC[C@@H]([C@@H](CC1CCC(C)CC1)C(=O)N[C@@H](CO)C(=O)Nc1nccs1)N(O)C=O (stereo partly drawn)

stdout:
1. 98
2. 100
